meta.source: patent US20230115945A1

biological target: FGFR3 (Homo sapiens, UniProt P22607); construct: made in house; host or cells: E. coli host derived from BL21, infected with T7 phage; experiment: Kinase binding assay (Kd), FGFR3; settings: 11-point 3-fold dilution, qPCR readout
Sequence (P22607 23-806): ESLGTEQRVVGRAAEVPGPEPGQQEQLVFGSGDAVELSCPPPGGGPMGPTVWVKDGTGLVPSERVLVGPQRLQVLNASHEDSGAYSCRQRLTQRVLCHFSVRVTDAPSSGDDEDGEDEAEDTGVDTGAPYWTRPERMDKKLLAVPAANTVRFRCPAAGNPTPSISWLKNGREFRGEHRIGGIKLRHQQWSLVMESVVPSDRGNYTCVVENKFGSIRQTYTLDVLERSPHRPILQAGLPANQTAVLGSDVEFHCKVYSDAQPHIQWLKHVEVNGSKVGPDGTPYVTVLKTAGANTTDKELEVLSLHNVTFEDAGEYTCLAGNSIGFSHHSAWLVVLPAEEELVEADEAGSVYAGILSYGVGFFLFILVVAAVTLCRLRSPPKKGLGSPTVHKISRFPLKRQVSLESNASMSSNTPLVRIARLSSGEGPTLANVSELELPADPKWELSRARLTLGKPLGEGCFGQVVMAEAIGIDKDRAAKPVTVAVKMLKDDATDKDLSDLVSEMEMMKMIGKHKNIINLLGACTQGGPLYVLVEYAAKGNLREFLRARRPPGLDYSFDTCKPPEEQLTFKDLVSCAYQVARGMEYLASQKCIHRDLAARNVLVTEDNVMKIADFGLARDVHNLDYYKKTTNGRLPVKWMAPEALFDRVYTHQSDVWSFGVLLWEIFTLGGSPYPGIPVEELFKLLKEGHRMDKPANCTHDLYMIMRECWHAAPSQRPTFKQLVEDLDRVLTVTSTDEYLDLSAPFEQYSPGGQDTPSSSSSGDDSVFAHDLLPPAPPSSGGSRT
Property Name: log10 Kd (log10 of the value in nM)

> print(dat)
                                    compound                        assayed.system  measured.value
 1  COc1cc(Nc2ncc(C)c(-c3c[nH]c4c(F)cccc34)n2)ccc1N=S(C)(C)=O [Example 32]  FGFR3 (Homo sapiens, UniProt P22607)            0.48
 2  C=CC(=O)Nc1cc2ccn(-c3nc(Nc4ccc(N=S(C)(C)=O)cc4)ncc3Cl)c2cc1C [Example 85]  FGFR3 (Homo sapiens, UniProt P22607)            2.26
 3  C=CC(=O)Nc1ccc2c(-c3nc(Nc4ccc(N=S(C)(C)=O)cc4)ncc3Cl)cn(C)c2c1 [Example 92]  FGFR3 (Homo sapiens, UniProt P22607)            1.08
 4  CCC(=O)Nc1ccc2c(ccn2-c2nc(Nc3ccc(N=S(C)(C)=O)cc3)ncc2Cl)c1 [Example 68]  FGFR3 (Homo sapiens, UniProt P22607)            2.51
 5  Cc1cnc(Nc2ccc(N=S(C)(C)=O)cc2)nc1-c1c[nH]c2cc(F)ccc12 [Example 29]  FGFR3 (Homo sapiens, UniProt P22607)            1.32
 6  Cc1cnc(Nc2ccc(S(=N)(=O)C3CC3)cc2)nc1-c1c[nH]c2ccccc12 (centres unmarked) [Example 51]  FGFR3 (Homo sapiens, UniProt P22607)            1.26
 7  Cc1[nH]c2ccccc2c1-c1nc(Nc2ccc(S(C)(=N)=O)cc2)ncc1Cl (centres unmarked) [Example 56]  FGFR3 (Homo sapiens, UniProt P22607)            1.69
 8  Cc1cnc(Nc2ccc(N=S(C)(C)=O)c(Cl)c2)nc1-c1c[nH]c2ccccc12 [Example 25]  FGFR3 (Homo sapiens, UniProt P22607)            1.11
 9  Cc1cnc(Nc2ccc(S(C)(=N)=O)cc2)nc1-c1c(C)[nH]c2ccccc12 (centres unmarked) [Example 57]  FGFR3 (Homo sapiens, UniProt P22607)            1.72
10  COc1ccc2c(-c3nc(Nc4ccc(N=S(C)(C)=O)cc4)ncc3C)c[nH]c2c1 [Example 30]  FGFR3 (Homo sapiens, UniProt P22607)            1.54
11  C=CC(=O)Nc1ccc2c(ccn2-c2nc(Nc3ccc(N=S4(=O)CCN(C)CC4)cc3)ncc2Cl)c1 [Example 69]  FGFR3 (Homo sapiens, UniProt P22607)            1.15
12  CC(C)Oc1cc(N=S(C)(C)=O)ccc1Nc1ncc(Cl)c(-c2c[nH]c3ccccc23)n1 [Example 3]  FGFR3 (Homo sapiens, UniProt P22607)            3.67
13  COc1cc(Nc2ncc(C)c(-c3c[nH]c4c(OC)cccc34)n2)ccc1N=S(C)(C)=O [Example 33]  FGFR3 (Homo sapiens, UniProt P22607)            1.28
14  C=CC(=O)Nc1ccc2c(c1)c(C)cn2-c1nc(Nc2ccc(N=S(C)(C)=O)c(F)c2)ncc1Cl [Example 60]  FGFR3 (Homo sapiens, UniProt P22607)            0.54
15  CS(C)(=O)=Nc1ccc(Nc2ncc(Cl)c(-n3ncc4cc(N)ccc43)n2)cc1 [Example 87]  FGFR3 (Homo sapiens, UniProt P22607)            2.11
16  Cc1cnc(Nc2ccc(N=S3(=O)CCN(C)CC3)cc2)nc1-c1c[nH]c2ccccc12 [Example 49]  FGFR3 (Homo sapiens, UniProt P22607)            0.90
17  C=CC(=O)Nc1ccc2c(c1)c(C)cn2-c1nc(Nc2ccc(N=S(C)(C)=O)cc2OCC)ncc1Cl [Example 65]  FGFR3 (Homo sapiens, UniProt P22607)            3.23
18  C=CC(=O)Nc1ccc2c(c1)c(C)cn2-c1nc(Nc2ccc(N=S(C)(C)=O)cc2)ncc1Cl [Example 61]  FGFR3 (Homo sapiens, UniProt P22607)            0.78
19  COc1cc(N2CCS(=N)(=O)CC2)ccc1Nc1ncc(C)c(-n2ccc3ccccc32)n1 [Example 46]  FGFR3 (Homo sapiens, UniProt P22607)            3.34
20  Cc1cnc(Nc2ccc(S(C)(=N)=O)cc2)nc1-c1c[nH]c2ccccc12 (centres unmarked) [Example 48]  FGFR3 (Homo sapiens, UniProt P22607)            1.20
21  COc1cc(Nc2ncc(C)c(-c3c[nH]c4c(C)cccc34)n2)ccc1N=S(C)(C)=O [Example 31]  FGFR3 (Homo sapiens, UniProt P22607)            0.70
22  COc1ccc(N=S(C)(C)=O)cc1Nc1ncc(Cl)c(-c2c[nH]c3ccccc23)n1 [Example 6]  FGFR3 (Homo sapiens, UniProt P22607)            3.04
23  CS(C)(=O)=Nc1ccc(Nc2cc(-c3c[nH]c4ccccc34)ncn2)cc1 [Example 12]  FGFR3 (Homo sapiens, UniProt P22607)            2.57
24  C=CC(=O)Nc1ccc2c(c1)c(C)cn2-c1nc(Nc2ccc(N=S(C)(C)=O)c(F)c2)ncc1C#N [Example 62]  FGFR3 (Homo sapiens, UniProt P22607)            1.30
25  CCC(=O)Nc1ccc2c(ccn2-c2nc(Nc3ccc(N4CCS(=N)(=O)CC4)cc3)ncc2Cl)c1 [Example 73]  FGFR3 (Homo sapiens, UniProt P22607)            2.26
26  C=CC(=O)Nc1ccc2c(ccn2-c2nc(Nc3ccc(S(C)(=N)=O)cc3)ncc2Cl)c1 (centres unmarked) [Example 70]  FGFR3 (Homo sapiens, UniProt P22607)            1.32
27  C=CC(=O)Nc1ccc2c(-c3nc(Nc4ccc(S(C)(=N)=O)cc4)ncc3Cl)c[nH]c2c1 (centres unmarked) [Example 89]  FGFR3 (Homo sapiens, UniProt P22607)            1.85
28  CS(C)(=O)=Nc1ccc(Nc2ncc(Cl)c(-n3ccc4c(NC(=O)C5CC5)cccc43)n2)cc1 [Example 78]  FGFR3 (Homo sapiens, UniProt P22607)            2.15
29  COc1c(N=S(C)(C)=O)cccc1Nc1ncc(Cl)c(-c2c[nH]c3ccccc23)n1 [Example 5]  FGFR3 (Homo sapiens, UniProt P22607)            3.63
30  C=CC(=O)Nc1ccc2c(ccn2-c2nc(Nc3ccc(N4CCS(=N)(=O)CC4)cc3)ncc2Cl)c1 [Example 72]  FGFR3 (Homo sapiens, UniProt P22607)            1.23
31  N=S1(=O)CCN(c2ccc(Nc3ncc(Cl)c(-c4c[nH]c5ccccc45)n3)cc2)CC1 [Example 53]  FGFR3 (Homo sapiens, UniProt P22607)            1.04
32  COc1cc(N=S(C)(C)=O)ccc1Nc1ncc(Cl)c(-c2c[nH]c3ccccc23)n1 [Example 1]  FGFR3 (Homo sapiens, UniProt P22607)            2.23
